Entries annotated with measured mortality at 500 ppm
- Tested on: Diabrotica balteata (rootworm larvae)
- TEST_DESCRIPTION: Residual test on rootworm larvae (DB), Filter paper/maize seed, mortality
- Type: in vivo
- MEASUREMENT_SETUP: 48 h, 500 ppm, residual, * test duration of 3 days, read-out: DB grading of mortality

Recorded mortality at 500 ppm, per entry:
Q: Fill in the blank: the reported mortality at 500 ppm of COCc1c(F)c(F)c(COC(=O)C(c2cnc(C(C)(C)C)nc2)C(C)(C)C)c(OC)c1F (racemic) is ____.
Result: < 50%

Q: Likewise for C[C@@H](OC(=O)[C@@H](c1cnc(C(C)(C)C)nc1)C1CC1)c1cccc(Oc2ccccc2)n1 (racemic) ?
Result: 80 to 100%

Others:
Q: Fill in the blank: the reported mortality at 500 ppm of COCc1c(F)c(F)c(COC(=O)C(c2cnc(C(F)(F)F)nc2)C(C)C)c(F)c1F (racemic) is ____.
Result: 80 to 100%

Q: Likewise for CC(C)(C)c1ncc(C(C(=O)OCc2ccc(F)c(Oc3ccccc3)c2)C2CC2)cn1 (racemic) ?
Result: 80 to 100%

Q: Likewise for Cc1c(F)c(F)c(COC(=O)C(c2cnc(C(C)(C)C)nc2)C(C)(C)C)c(F)c1F (racemic) ?
Result: 80 to 100%

---

- Test system: Diabrotica balteata (rootworm larvae)
- TEST_DESCRIPTION: Residual test on rootworm larvae (DB), Filter paper/maize seed, mortality
- Assay type: in vivo
- MEASUREMENT_SETUP: 48 h, 500 ppm, residual, 2 days, read-out: DB grading of mortality
Entries annotated with measured mortality at 500 ppm

Q: Fill in the blank: the reported mortality at 500 ppm of C[C@@H](OC(=O)[C@@H](c1cnc(C2(C)CC2)nc1)C(C)(C)C)c1cccc(Oc2ccccc2)n1 (racemic) is ____.
Result: < 50%

Q: Likewise for CCOc1c(F)c(COC)c(F)c(F)c1COC(=O)C(c1cnc(C(C)(C)C)nc1)C(C)(C)C (racemic) ?
Result: < 50%

Q: Likewise for CC(C)=NOCc1c(F)c(F)c(COC(=O)C(c2cnc(C(C)(C)C)nc2)C(C)(C)C)c(F)c1F (racemic) ?
Result: < 50%

---

Entries annotated with measured mortality at 500 ppm
- Tested on: Diabrotica balteata (rootworm larvae)
- TEST_DESCRIPTION: Residual test on rootworm larvae (DB), Filter paper/maize seed, mortality
- Type: in vivo
- MEASUREMENT_SETUP: 48 h, 500 ppm, residual, 2 days, read-out: DB grading of mortality

Q: Fill in the blank: the reported mortality at 500 ppm of CC(C)SCc1c(F)c(F)c(COC(=O)C(c2cnc(C(C)(C)C)nc2)C(C)(C)C)c(F)c1F (racemic) is ____.
Result: < 50%

Q: Likewise for CC(C)(C)c1ncc(C(C(=O)OCc2c(F)c(F)c(F)c(F)c2F)C(C)(C)C)cn1 (racemic) ?
Result: 80 to 100%

Q: Likewise for COCc1c(F)c(F)c(COC(=O)C(c2cnc(C(C)C)nc2)C(C)(C)C)c(OC)c1F (racemic) ?
Result: < 50%

Q: Likewise for CC(C)(C)c1ncc(C(C(=O)OC(C#N)c2cccc(Oc3ccccc3)c2)C(C)(C)C)cn1 (racemic) ?
Result: 80 to 100%

Q: Likewise for CC(C)OCc1c(F)c(F)c(COC(=O)C(c2cnc(C(C)(C)C)nc2)C(C)(C)C)c(F)c1F (racemic) ?
Result: < 50%

Others:
Q: Fill in the blank: the reported mortality at 500 ppm of CCC(C)(C)c1ncc(C(C(=O)OCc2ccc(F)c(Oc3ccccc3)c2)C(C)(C)C)cn1 (racemic) is ____.
Result: < 50%

Q: Likewise for Cc1c(COC(=O)C(c2cnc(C(C)(C)C)nc2)C(C)(C)C)cccc1-c1ccccc1 (racemic) ?
Result: < 50%

Q: Likewise for CSc1c(COC(=O)C(c2cnc(C(C)(C)C)nc2)C(C)(C)C)cc(F)c(C)c1F (racemic) ?
Result: < 50%

Q: Likewise for C[C@@H](OC(=O)[C@@H](c1cnc(C(C)(C)C)nc1)C(C)(C)C)c1cccc(Oc2ccccc2)n1 (racemic) ?
Result: 80 to 100%

Q: Likewise for C#CCc1c(F)c(F)c(COC(=O)C(c2cnc(C(C)(C)C)nc2)C2CC2)c(F)c1F (racemic) ?
Result: 80 to 100%

Q: Likewise for CCOC(=O)c1c(F)c(F)c(COC(=O)C(c2cnc(C(C)(C)C)nc2)C(C)(C)C)c(F)c1F (racemic) ?
Result: < 50%

Q: Likewise for CC(C)(C)C(C(=O)OCc1ccc(F)c(Oc2ccccc2)c1)c1cnc(C2CC2)nc1 (racemic) ?
Result: 80 to 100%

Q: Likewise for CC(C)(C)c1ncc(C(C(=O)OCc2c(F)c(F)c(COc3ccccc3)c(F)c2F)C(C)(C)C)cn1 (racemic) ?
Result: < 50%

Q: Likewise for CC(C)(C)c1ncc(C(C(=O)OCc2ccc(F)c(Oc3ccccc3)c2)C(C)(C)C)cn1 (racemic) ?
Result: 50 to 79%

Q: Likewise for CSc1c(F)c(F)c(COC(=O)C(c2cnc(C(C)(C)C)nc2)C(C)(C)C)c(F)c1F (racemic) ?
Result: < 50%

Q: Likewise for CCOc1c(F)c(COc2ccccc2)c(F)c(F)c1COC(=O)C(c1cnc(C(C)(C)C)nc1)C(C)(C)C (racemic) ?
Result: < 50%

---

- Tested on: Diabrotica balteata (rootworm larvae)
- TEST_DESCRIPTION: Residual test on rootworm larvae (DB), Filter paper/maize seed, mortality
- Assay type: in vivo
- MEASUREMENT_SETUP: 48 h, 500 ppm, residual, * test duration of 3 days, read-out: DB grading of mortality
ENDPOINT_NAME: mortality at 500 ppm

Recorded mortality at 500 ppm, per entry:
Q: Fill in the blank: the reported mortality at 500 ppm of C=CCc1c(F)c(F)c(COC(=O)C(c2cnc(C(Cl)(Cl)Cl)nc2)C(C)C)c(F)c1F (racemic) is ____.
Result: 50 to 79%

Q: Likewise for COCc1c(F)c(F)c(COC(=O)C(c2cnc(C)nc2)C(C)C)c(F)c1F (racemic) ?
Result: < 50%

Q: Likewise for C=CCc1c(F)c(F)c(COC(=O)C(c2cnc(N(C)C)nc2)C(C)C)c(F)c1F (racemic) ?
Result: < 50%

Alright, here's another compound for you.
Q: Fill in the blank: the reported mortality at 500 ppm of C=CCc1c(F)c(F)c(COC(=O)C(CC)c2cnc(C(C)(C)C)nc2)c(F)c1F (racemic) is ____.
Result: < 50%

---

Entries annotated with measured mortality at 500 ppm
- Tested on: Musca domestica (houseflies - adults)
- TEST_DESCRIPTION: Contact test on houseflies - adults (MD), Cotton wool/sugar, mortality
- Assay type: in vivo
- MEASUREMENT_SETUP: 72 h, 500 ppm, contact, 3 days, read-out: MD grading of mortality

Q: For Musca domestica (houseflies - adults), provide mortality at 500 ppm of CCOCc1c(F)c(F)c(COC(=O)C(c2cnc(C(C)(C)C)nc2)C(C)(C)C)c(OC)c1F (racemic) please.
Result: 50 to 79%

Others:
Q: For Musca domestica (houseflies - adults), provide mortality at 500 ppm of CC(C)(C)c1ncc(C(C(=O)OCc2c(F)c(F)c(COCc3ccc(Cl)cc3)c(F)c2F)C(C)(C)C)cn1 (racemic) please.
Result: < 50%

---

- Tested on: Diabrotica balteata (rootworm larvae)
- TEST_DESCRIPTION: Residual test on rootworm larvae (DB), Filter paper/maize seed, mortality
- Format: in vivo
- MEASUREMENT_SETUP: 48 h, 500 ppm, residual, 2 days, read-out: DB grading of mortality
Entries annotated with measured mortality at 500 ppm

Q: Fill in the blank: the reported mortality at 500 ppm of Cc1ncc(C(C(=O)OC(C)c2cccc(Oc3ccccc3)n2)C(C)(C)C)cn1 (racemic) is ____.
Result: < 50%

Q: Likewise for CC(C)(C)c1ncc(C(C(=O)OCc2c(F)c(F)c(COCc3ccc(Cl)cc3)c(F)c2F)C(C)(C)C)cn1 (racemic) ?
Result: < 50%

Q: Likewise for COCc1c(F)c(F)c(COC(=O)C(c2cnc(C(C)(C)C)nc2)C(C)(C)C)c(F)c1OC (racemic) ?
Result: < 50%

Others:
Q: Fill in the blank: the reported mortality at 500 ppm of CC(C)(C)C(C(=O)OCc1ccc(F)c(Oc2ccccc2)c1)c1cnc(-c2ccccc2Cl)nc1 (racemic) is ____.
Result: < 50%

Q: Likewise for C=C(C)C(C(=O)OCc1c(F)c(F)c(COC)c(F)c1F)c1cnc(C(C)(C)C)nc1 (racemic) ?
Result: < 50%

Q: Likewise for CC(C)(C)c1ncc(C(C(=O)OCN2C(=O)C3=C(CCCC3)C2=O)C(C)(C)C)cn1 (racemic) ?
Result: 50 to 79%
